- TARGET_OR_TEST_SYSTEM: N-terminal Xaa-Pro-Lys N-methyltransferase 1 (Homo sapiens)
- PROTOCOL_DESCRIPTION: qHTS Assay for Inhibitors of N-terminal methyltransferase 1 (NTMT1): LOPAC validation of the NTMT1 SAHH-coupled ThioGlo3 Assay (AID 1347143);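 further: SAH from peptide methylation measured as thiol fluorescence via SAHH coupling and ThioGlo3; nearly all actives have a fitted effect of over 70% in size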
- CONDITION_INFO: recombinant NTMT1, SAHH-coupled ThioGlo3 fluorescence; series mostly up to 114 µM
Results filed as inconclusive are left out. Activity calls are given as the source filed them. The call rests on the fitted dose curve; in most records, active means well fitted inhibition curve with a large enough effect; inconclusive means small, poorly fitted or top-dose-only effect; inactive means no such curve, though single readings can be large or run the other way.
Result category, one only: active, inactive

NC[C@@H]1O[C@H](C23CC4CC(CC(C4)C2)C3)Cc2c1ccc(O)c2O | active
COc1ccccc1CNCCCCCCNCCCCCCCCNCCCCCCNCc1ccccc1OC | active
CC[C@H]1OC(=O)[C@H](C)[C@@H](O[C@H]2C[C@@](C)(OC)[C@@H](O)[C@H](C)O2)[C@H](C)[C@@H](O[C@@H]2O[C@H](C)C[C@H](NC)[C@H]2O)[C@](C)(O)C[C@@H](C)CN(C)[C@H](C)[C@@H](O)[C@]1(C)O | inactive
Oc1ccc(C2CNCc3sccc32)cc1O (stereo not drawn) | active
O=C1NCc2c1c1c3ccccc3[nH]c1c1[nH]c3ccccc3c21 | active
Cc1cn([C@H]2CC(N=[N+]=[N-])[C@@H](CO)O2)c(=O)[nH]c1=O (stereo partly drawn) | inactive

Check the results log: what was the call for CS(=O)(=O)c1ccc(-n2nc(C(F)(F)F)cc2-c2ccc(F)cc2)cc1 ? inactive

Outcome logged for O=C(CCCCCN1CCN(c2ccccc2-c2ccccc2)CC1)NC1CCCc2ccccc21 (stereo not drawn) in this assay: active

Dear colleague, could you share the recorded outcome for CC(C)c1cccc(C(C)C)c1N1C(=O)c2ccc(O)cc2C1=O when you have a moment? inactive

How was NC(CCCP(=O)(O)O)C(=O)O (stereo not drawn) classified in this test? inactive

Recorded test outcome, item CN=c1nc(-c2ccccc2)n(-c2ccccc2)s1 active
